testTarget: human melanocortin receptor subtype 3 (hMC3-R) (human) (UniProt P41968)
Sequence (P41968 whole entry): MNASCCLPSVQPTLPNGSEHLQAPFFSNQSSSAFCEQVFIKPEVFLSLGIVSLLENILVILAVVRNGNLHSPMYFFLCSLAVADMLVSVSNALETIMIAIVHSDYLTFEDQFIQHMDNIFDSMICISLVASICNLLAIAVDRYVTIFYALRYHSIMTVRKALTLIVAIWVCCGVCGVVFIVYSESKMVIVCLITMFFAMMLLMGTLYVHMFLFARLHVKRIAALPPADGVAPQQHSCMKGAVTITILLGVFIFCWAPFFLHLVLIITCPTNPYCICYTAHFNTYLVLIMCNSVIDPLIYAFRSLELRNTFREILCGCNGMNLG
methodNotes: [125I]-NDP-α-MSH competition, membranes
Bridge positions count the residues as written; N and C are the ends. Square brackets hold non-standard residues; d marks the D form. Ends that are not written are not given here. Orn = NCCC[C@H](N)C(=O)O; Dab = NCC[C@H](N)C(=O)O; Dap = NC[C@H](N)C(=O)O
Quick reference for Ki among some binders
Give your result in nM as a bare value.

| binder | unitLabel | Ki |
| --- | --- | --- |
| E[dA]H[dF]RW[Orn]-NH2 (lactam 1-7 (inferred); also: hydantoin ring from C(O) with Glu1-D-Ala2) [c[Hydantoin(C(O)-(Glu-D-Ala))-His-D-Phe-Arg-Trp-Orn]-NH2] | nM | 2840 |

Ask | Answer with reported Ki of G[dR]C[dA]H[dF]RWC-NH2 (bridge N-2 via C(O) hydantoin; disulfide 3-9; not fully specified) [Hydantoin(C(O)-(Gly-D-Arg))-c(Cys-D-Ala-His-D-Phe-Arg-Trp-Cys)-NH2]
Reply | 29.2

Ask | Answer with reported Ki of D[dA]H[dF]RW[Dap]-NH2 (lactam 1-7; also: hydantoin ring from C(O) with Asp1-D-Ala2) [c[Hydantoin(C(O)-(Asp-D-Ala))-His-D-Phe-Arg-Trp-Dap]-NH2]
Reply | 1820

Ask | Answer with reported Ki of E[dA]H[dF]RW[Dab]-NH2 (lactam 1-7; also: hydantoin ring from C(O) with Glu1-D-Ala2) [c[Hydantoin(C(O)-(Glu-D-Ala))-His-D-Phe-Arg-Trp-Dab]-NH2]
Reply | 90.5

Ask | Answer with reported Ki of E[dA]H[dF]RWK-NH2 (lactam 1-7 (inferred); also: hydantoin ring from C(O) with Glu1-D-Ala2) [c[Hydantoin(C(O)-(Glu-D-Ala))-His-D-Phe-Arg-Trp-Lys]-NH2]
Reply | 1920

Ask | Answer with reported Ki of E[dA]H[dF]RW[Dap]-NH2 (lactam 1-7 (inferred); also: hydantoin ring from C(O) with Glu1-D-Ala2) [c[Hydantoin(C(O)-(Glu-D-Ala))-His-D-Phe-Arg-Trp-Dap]-NH2]
Reply | 863

Ask | Answer with reported Ki of D[dA]H[dF]RW[Orn]-NH2 (lactam 1-7; also: hydantoin ring from C(O) with Asp1-D-Ala2) [c[Hydantoin(C(O)-(Asp-D-Ala))-His-D-Phe-Arg-Trp-Orn]-NH2]
Reply | 576
